Examples of compounds with documented inhibition at 0.1 µM follow.
Target: CDK4/cyclin D3 (Homo sapiens)
Construct: made in house; host or cells: insect cells (baculovirus co-infection)
Test: Inhibition of CDK4/Cyclin D retinoblastoma kinase activity
Type: biochemical
Conditions: test compound at 0.1 μM; read-out: % Inhib CDK4/D @ 0.1 μM
experimental endpoint: inhibition at 0.1 µM (%)

compound | experimental endpoint | unit of measurement | reported measurement
CC(=O)OCCSc1ccc(Nc2nc(N)c(C(=O)c3c(Cl)cccc3Cl)s2)cc1 [DD(37)] | inhibition at 0.1 µM | % | 30
CC(C)(CO)CS(=O)(=O)c1ccc(Nc2nc(N)c(C(=O)c3c(Cl)cccc3Cl)s2)cc1 [DD(200)] | inhibition at 0.1 µM | % | 22
Cc1noc(C)c1CSc1cccc(Nc2nc(N)c(C(=O)c3c(Cl)cccc3Cl)s2)c1 [DD(42)] | inhibition at 0.1 µM | % | 41
CC(C)CCOC(=O)CS(=O)(=O)c1ccc(N(C)c2nc(N)c(C(=O)c3c(Cl)cccc3Cl)s2)cc1 [DD(231)] | inhibition at 0.1 µM | % | 27
CN1CCCC(C[S+]([O-])c2ccc(Nc3nc(N)c(C(=O)c4c(Cl)cccc4Cl)s3)cc2)C1 (centres unmarked) [DD(107)] | inhibition at 0.1 µM | % | 28
Nc1nc(Nc2ccc([S+]([O-])CC3CNC(=O)O3)cc2)sc1C(=O)c1c(Cl)cccc1Cl (centres unmarked) [DD(89)] | inhibition at 0.1 µM | % | 35
CCOCCS(=O)(=O)c1ccc(Nc2nc(N)c(C(=O)c3c(Cl)cccc3Cl)s2)cc1 [DD(233)] | inhibition at 0.1 µM | % | 11
NC(=O)CC[S+]([O-])c1ccc(Nc2nc(N)c(C(=O)c3c(Cl)cccc3Cl)s2)cc1 (centres unmarked) [DD(108)] | inhibition at 0.1 µM | % | 60

----------
Biological target: CDK4/cyclin D3 (Homo sapiens)
Construct: made in house; host or cells: insect cells (baculovirus co-infection)
Assay: Inhibition of CDK4/Cyclin D retinoblastoma kinase activity;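 for % Inhib CDK4/D @ 1 μM: relative to DMSO control wells without compound minus no-enzyme background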
Type: biochemical
Conditions: test compound at 1 μM (head line shifted: 'mM' printed beside 'Structure'); read-out: % Inhib CDK4/D @ 1 μM
Threshold rule: inhibition at 1 µM greater than or equal to 50% is 1; below that, -1.

compound | discrete label
CC1(CSc2ccc(Nc3nc(N)c(C(=O)c4c(Cl)cccc4Cl)s3)cc2)CO1 (centres unmarked) | 1
NC(=O)C[S+]([O-])c1ccc(Nc2nc(N)c(C(=O)c3c(Cl)cccc3Cl)s2)cc1 (centres unmarked) | 1
Nc1nc(Nc2ccc(SCc3ccncc3)cc2)sc1C(=O)c1c(Cl)cccc1Cl | 1
CCC(CC)CS(=O)(=O)c1ccc(Nc2nc(N)c(C(=O)c3c(Cl)cccc3Cl)s2)cc1 | -1
CC(C)OC(=O)CCSc1cccc(Nc2nc(N)c(C(=O)c3c(Cl)cccc3Cl)s2)c1 | -1
Nc1nc(Nc2cccc(SCc3ccncc3)c2)sc1C(=O)c1c(Cl)cccc1Cl | 1
Nc1nc(Nc2cccc(SCC3CC3)c2)sc1C(=O)c1c(Cl)cccc1Cl | 1
NC(=O)CCSc1ccc(Nc2nc(N)c(C(=O)c3c(Cl)cccc3Cl)s2)cc1 | 1
CCOC(=O)CCSc1ccc(Nc2nc(N)c(C(=O)c3c(Cl)cccc3Cl)s2)cc1 | 1
CCN(CC)C(=O)CSc1ccc(Nc2nc(N)c(C(=O)c3c(Cl)cccc3Cl)s2)cc1 | -1
Nc1nc(Nc2cccc(SCC3CO3)c2)sc1C(=O)c1c(Cl)cccc1Cl (centres unmarked) | 1
CN1CCCC(C[S+]([O-])c2ccc(Nc3nc(N)c(C(=O)c4c(Cl)cccc4Cl)s3)cc2)C1 (centres unmarked) | -1
CC(=O)OCC[S+]([O-])c1cccc(Nc2nc(N)c(C(=O)c3c(Cl)cccc3Cl)s2)c1 (centres unmarked) | 1
Nc1nc(Nc2cccc(SCC(O)CO)c2)sc1C(=O)c1c(Cl)cccc1Cl (centres unmarked) | 1
CN1CCCC(C[S+]([O-])c2cccc(Nc3nc(N)c(C(=O)c4c(Cl)cccc4Cl)s3)c2)C1 (centres unmarked) | -1
Nc1nc(Nc2ccc(SCC3CNC(=O)O3)cc2)sc1C(=O)c1c(Cl)cccc1Cl (centres unmarked) | -1
CCOCC[S+]([O-])c1cccc(Nc2nc(N)c(C(=O)c3c(Cl)cccc3Cl)s2)c1 (centres unmarked) | 1

----------
Molecular target: CDK4/cyclin D3 (Homo sapiens, UniProt P11802)
Construct: made in house; host or cells: insect cells (baculovirus co-infection)
Sequence (P11802 whole entry): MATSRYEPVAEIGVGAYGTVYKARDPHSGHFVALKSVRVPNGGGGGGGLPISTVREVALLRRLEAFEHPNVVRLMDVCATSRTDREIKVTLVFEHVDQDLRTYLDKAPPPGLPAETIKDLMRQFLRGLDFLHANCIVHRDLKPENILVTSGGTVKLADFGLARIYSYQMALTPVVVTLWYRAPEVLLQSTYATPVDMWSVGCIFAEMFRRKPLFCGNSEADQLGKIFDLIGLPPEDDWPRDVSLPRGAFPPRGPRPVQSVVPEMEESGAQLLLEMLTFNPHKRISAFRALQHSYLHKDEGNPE
Sequence (P30281 1-264 partner limits assumed): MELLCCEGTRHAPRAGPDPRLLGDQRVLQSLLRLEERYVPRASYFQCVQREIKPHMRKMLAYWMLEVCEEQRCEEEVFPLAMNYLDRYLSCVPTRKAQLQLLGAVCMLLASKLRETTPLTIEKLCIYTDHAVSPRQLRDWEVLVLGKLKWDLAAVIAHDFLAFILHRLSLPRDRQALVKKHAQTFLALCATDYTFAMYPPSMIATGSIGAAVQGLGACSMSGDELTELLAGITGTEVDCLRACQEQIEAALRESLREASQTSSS
Experiment: Inhibition of CDK4/Cyclin D retinoblastoma kinase activity
Assay type: biochemical
Conditions: test compound at 0.03 (unit cell empty, head line shifted; μM); read-out: % Inhib CDK4/D @ 0.03
experimental endpoint: inhibition at 0.03 µM (%)

compound | experimental endpoint | reported measurement
CCC(CC)CSc1cccc(Nc2nc(N)c(C(=O)c3c(Cl)cccc3Cl)s2)c1 [DD(76)] | inhibition at 0.03 µM | 19
NC(=O)CSc1ccc(Nc2nc(N)c(C(=O)c3c(Cl)cccc3Cl)s2)cc1 [DD(21)] | inhibition at 0.03 µM | 50
CC(C)CCSc1cccc(Nc2nc(N)c(C(=O)c3c(Cl)cccc3Cl)s2)c1 [DD(53)] | inhibition at 0.03 µM | 5.6
CCN(CC)C(=O)C[S+]([O-])c1cccc(Nc2nc(N)c(C(=O)c3c(Cl)cccc3Cl)s2)c1 (stereo not shown) [DD(121)] | inhibition at 0.03 µM | -0.5

----------
Examples of molecules with documented inhibition at 0.1 µM follow.
Molecular target: CDK4/cyclin D3 (Homo sapiens)
Construct: made in house; host or cells: insect cells (baculovirus co-infection)
Assay: Inhibition of CDK4/Cyclin D retinoblastoma kinase activity
Assay type: biochemical
Conditions: test compound at 0.1 μM; read-out: % Inhib CDK4/D @ 0.1 μM
Description: Cyclin-dependent kinase activity was measured by quantifying the enzyme-catalyzed, time-dependent incorporation of radioactive phosphate from [^32P]ATP or [^33P]ATP into a protein substrate. […] The phosphorylated substrate was then captured on a nitrocellulose or phosphocellulose membrane using a 96-well filtration manifold, and unincorporated radioactivity was removed by repeated washing with 0.85% phosphoric acid. Radioactivity was quantified by exposing the dried membranes to a phosphorimager. […]
experimental endpoint: inhibition at 0.1 µM (%)

molecule | reported measurement
Nc1nc(Nc2ccc(SCC3CCCO3)cc2)sc1C(=O)c1c(Cl)cccc1Cl (centres unmarked) | 9.9
Nc1nc(Nc2cccc(SCC3CNC(=O)O3)c2)sc1C(=O)c1c(Cl)cccc1Cl (centres unmarked) | 19
NC(=O)CCSc1ccc(Nc2nc(N)c(C(=O)c3c(Cl)cccc3Cl)s2)cc1 | 51
Nc1nc(Nc2ccc(S(=O)(=O)Cc3ccncc3)cc2)sc1C(=O)c1c(Cl)cccc1Cl | 27
CC(C)OC(=O)CCS(=O)(=O)c1ccc(Nc2nc(N)c(C(=O)c3c(Cl)cccc3Cl)s2)cc1 | 9.2
CCOC(=O)CCSc1ccc(Nc2nc(N)c(C(=O)c3c(Cl)cccc3Cl)s2)cc1 | 9.1
CC(C)OC(=O)CCSc1ccc(Nc2nc(N)c(C(=O)c3c(Cl)cccc3Cl)s2)cc1 | 32
CN(C)CCC[S+]([O-])c1cccc(Nc2nc(N)c(C(=O)c3c(Cl)cccc3Cl)s2)c1 (centres unmarked) | 41
COc1cccc(C[S+]([O-])c2ccc(Nc3nc(N)c(C(=O)c4c(Cl)cccc4Cl)s3)cc2)c1 (centres unmarked) | 36
CCOC(=O)CCSc1cccc(Nc2nc(N)c(C(=O)c3c(Cl)cccc3Cl)s2)c1 | 27
CN1CCCC(C[S+]([O-])c2cccc(Nc3nc(N)c(C(=O)c4c(Cl)cccc4Cl)s3)c2)C1 (centres unmarked) | 38
Cc1noc(C)c1C[S+]([O-])c1cccc(Nc2nc(N)c(C(=O)c3c(Cl)cccc3Cl)s2)c1 (centres unmarked) | 40
Nc1nc(Nc2ccc(SCC3CNC(=O)O3)cc2)sc1C(=O)c1c(Cl)cccc1Cl (centres unmarked) | -14
CCC(CC)C[S+]([O-])c1ccc(Nc2nc(N)c(C(=O)c3c(Cl)cccc3Cl)s2)cc1 (centres unmarked) | 15
CC(C)CCOC(=O)CSc1ccc(Nc2nc(N)c(C(=O)c3c(Cl)cccc3Cl)s2)cc1 | 30
CN(C)CCCS(=O)(=O)c1ccc(Nc2nc(N)c(C(=O)c3c(Cl)cccc3Cl)s2)cc1 | 18
CCC(CC)CSc1cccc(Nc2nc(N)c(C(=O)c3c(Cl)cccc3Cl)s2)c1 | 9.6

----------
Molecular target: CDK4/cyclin D3 (Homo sapiens)
Construct: made in house; host or cells: insect cells (baculovirus co-infection)
Experiment: Inhibition of CDK4/Cyclin D retinoblastoma kinase activity
Format: biochemical
Settings: test compound at 0.03 (unit cell empty, head line shifted; μM); read-out: % Inhib CDK4/D @ 0.03

compound | inhibition at 0.03 µM [%]
CC1(C[S+]([O-])c2ccc(Nc3nc(N)c(C(=O)c4c(Cl)cccc4Cl)s3)cc2)CO1 (centres unmarked) [DD(100)] | 7.1
CC(C)CCOC(=O)CSc1ccc(Nc2nc(N)c(C(=O)c3c(Cl)cccc3Cl)s2)cc1 [DD(31)] | 15
NC(=O)C[S+]([O-])c1cccc(Nc2nc(N)c(C(=O)c3c(Cl)cccc3Cl)s2)c1 (centres unmarked) [DD(141)] | 36
COCC[S+]([O-])c1cccc(Nc2nc(N)c(C(=O)c3c(Cl)cccc3Cl)s2)c1 (centres unmarked) [DD(134)] | 8.4
CN(C)CCSc1cccc(Nc2nc(N)c(C(=O)c3c(Cl)cccc3Cl)s2)c1 [DD(72)] | -1.1
CN1CCCC(C[S+]([O-])c2cccc(Nc3nc(N)c(C(=O)c4c(Cl)cccc4Cl)s3)c2)C1 (centres unmarked) [DD(147)] | 19
CC(=O)OCCSc1cccc(Nc2nc(N)c(C(=O)c3c(Cl)cccc3Cl)s2)c1 [DD(77)] | 23
COCCSc1ccc(Nc2nc(N)c(C(=O)c3c(Cl)cccc3Cl)s2)cc1 [DD(14)] | 18
NC(=O)CCSc1cccc(Nc2nc(N)c(C(=O)c3c(Cl)cccc3Cl)s2)c1 [DD(68)] | 25
CC(C)OC(=O)CC[S+]([O-])c1cccc(Nc2nc(N)c(C(=O)c3c(Cl)cccc3Cl)s2)c1 (centres unmarked) [DD(158)] | 22
Nc1nc(Nc2ccc(SCC3CO3)cc2)sc1C(=O)c1c(Cl)cccc1Cl (centres unmarked) [DD(12)] | 3.9
CN1CCCC(CSc2ccc(Nc3nc(N)c(C(=O)c4c(Cl)cccc4Cl)s3)cc2)C1 (centres unmarked) [DD(27)] | -2.6
Nc1nc(Nc2ccc(SCc3ncon3)cc2)sc1C(=O)c1c(Cl)cccc1Cl [DD(8)] | 16
Nc1nc(Nc2cccc([S+]([O-])CC(O)CO)c2)sc1C(=O)c1c(Cl)cccc1Cl (centres unmarked) [DD(154)] | 31
Nc1nc(Nc2ccc(S(=O)(=O)CC3CC3)cc2)sc1C(=O)c1c(Cl)cccc1Cl [DD(176)] | 17
Nc1nc(Nc2ccc([S+]([O-])CC3CC3)cc2)sc1C(=O)c1c(Cl)cccc1Cl (centres unmarked) [DD(96)] | -8.1
CN(C)CCSc1ccc(Nc2nc(N)c(C(=O)c3c(Cl)cccc3Cl)s2)cc1 [DD(32)] | 5.5
